- target-of-assay: Microtubule-associated protein 1 light chain 3 alpha (Homo sapiens)
- assay-method-text: Displacement of sGFP-p62-LIR peptide from human N-terminal SNAP-fused LC3A by time-resolved FRET assay
- assay-setup: read-out: IC50
# label = condition met if IC50 < 90 µM else condition not met

{"columns": ["molecule", "label-value"],
 "data": [
  ["CC(=O)Nc1ccc2c(O)c(NC(=O)c3cccc(CCC(C)C)c3)c(=O)oc2c1", "condition not met"],
  ["CC(C)CCc1ccccc1C(=O)Nc1c(O)c2ccc(O)cc2oc1=O", "condition not met"],
  ["CC(C)CCc1cccc(C(=O)Nc2c(O)c3ccc(NS(=O)(=O)c4ccccc4)cc3oc2=O)c1", "condition met"],
  ["CC(C)CCc1cccc(C(=O)Nc2c(O)c3ccc(NS(=O)(=O)CC(C)C)cc3oc2=O)c1", "condition not met"],
  ["CC(C)CCc1cc(C(=O)Nc2c(O)c3ccc(O)cc3oc2=O)ccc1O", "condition not met"],
  ["Cc1c(O)ccc2c(O)c(NC(=O)c3cccc(CCC(C)C)c3)c(=O)oc12", "condition not met"],
  ["CO[C@@H]1[C@@H](OC(N)=O)[C@@H](O)[C@H](Oc2ccc3c(O)c(NC(=O)c4ccc(O)c(CCC(C)C)c4)c(=O)oc3c2C)OC1(C)C", "condition met"],
  ["CC(C)CCc1cccc(C(=O)Nc2c(O)c3ccc(NS(=O)(=O)c4cccc5ccccc45)cc3oc2=O)c1", "condition met"],
  ["CC(C)CCc1cccc(C(=O)Nc2c(O)c3ccc(NC(=O)CCCC(=O)O)cc3oc2=O)c1", "condition not met"],
  ["Cc1ccccc1S(=O)(=O)Nc1ccc2c(O)c(NC(=O)c3cccc(CCC(C)C)c3)c(=O)oc2c1", "condition met"],
  ["CC(C)CCc1cc(C(=O)Nc2c(O)c3ccc(O)cc3oc2=O)ccc1F", "condition not met"],
  ["CC(C)CCc1cccc(C(=O)Nc2c(O)c3ccc(NS(=O)(=O)Cc4ccccc4)cc3oc2=O)c1", "condition met"],
  ["CC(C)CCc1cccc(C(=O)Nc2c(O)c3ccc(-c4cccc5ccccc45)cc3oc2=O)c1", "condition met"],
  ["CC(C)CCc1cccc(C(=O)Nc2c(O)c3ccc(-c4ccnn4Cc4ccccc4)cc3oc2=O)c1", "condition not met"],
  ["CCn1nccc1-c1ccc2c(O)c(NC(=O)c3cccc(CCC(C)C)c3)c(=O)oc2c1", "condition not met"],
  ["CC(C)CCc1cccc(C(=O)Nc2c(O)c3ccc(-c4ccnn4C)cc3oc2=O)c1", "condition not met"]
]}

###

- target-of-assay: Microtubule-associated protein 1 light chain 3 alpha (Homo sapiens)
- assay-method-text: Displacement of sGFP-p62-LIR peptide from human N-terminal SNAP-fused LC3A by time-resolved FRET assay
- assay-setup: read-out: Ki
pKi: −log10 of the molar value.
Quick reference: pKi of the listed items.

{"columns": ["molecule", "pKi"],
 "data": [
  ["CCCCc1cccc(C(=O)Nc2c(O)c3ccc(O)cc3oc2=O)c1", 4.92],
  ["CC(C)CSc1cccc(C(=O)Nc2c(O)c3ccc(O)cc3oc2=O)c1", 4.28],
  ["CC(C)CCc1cccc(C(=O)Nc2c(O)c3ccc(O)cc3oc2=O)c1", 4.88],
  ["CC(C)CCc1cccc(C(=O)Nc2c(O)c3ccc(-c4ccc(C(=O)O)cc4)cc3oc2=O)c1", 4.72],
  ["O=C(Nc1c(O)c2ccc(O)cc2oc1=O)c1cccc(OCC2CC2)c1", 3.86]
]}

###

- target-of-assay: Microtubule-associated protein 1 light chain 3 beta (Homo sapiens, UniProt Q9GZQ8)
- assay-method-text: Displacement of sGFP-p62-LIR peptide from human N-terminal SNAP-fused LC3B by time-resolved FRET assay
- assay-setup: read-out: Ki

{"columns": ["molecule", "target-of-assay", "value-unit", "Ki"],
 "data": [
  ["CO[C@@H]1[C@@H](OC(N)=O)[C@@H](O)[C@H](Oc2ccc3c(O)c(NC(=O)c4ccc(O)c(CCC(C)C)c4)c(=O)oc3c2C)OC1(C)C", "Microtubule-associated protein 1 light chain 3 beta (Homo sapiens, UniProt Q9GZQ8)", "µM", 8.1],
  ["CC(C)CCc1cccc(C(=O)Nc2c(O)c3ccc(NS(=O)(=O)CCc4ccccc4)cc3oc2=O)c1", "Microtubule-associated protein 1 light chain 3 beta (Homo sapiens, UniProt Q9GZQ8)", "µM", 7.4]
]}

###

Quick reference: pKi of the listed items.
- target-of-assay: Microtubule-associated protein 1 light chain 3 alpha (Homo sapiens)
- assay-method-text: Displacement of sGFP-p62-LIR peptide from human N-terminal SNAP-fused LC3A by time-resolved FRET assay
- assay-setup: read-out: Ki
pKi: −log10 of the molar value.

{"columns": ["molecule", "pKi"],
 "data": [
  ["CC(C)CCc1cccc(C(=O)Nc2c(O)c3ccc(NC(=O)CCCC(=O)O)cc3oc2=O)c1", 4.33],
  ["CCCCOc1cccc(C(=O)Nc2c(O)c3ccc(O)cc3oc2=O)c1", 4.16],
  ["CC(=O)Nc1ccc2c(O)c(NC(=O)c3cccc(CCC(C)C)c3)c(=O)oc2c1", 4.61],
  ["CC(C)CCc1cccc(C(=O)Nc2c(O)c3ccc(NS(=O)(=O)Cc4ccccc4)cc3oc2=O)c1", 4.82],
  ["CC(C)CCc1cccc(C(=O)Nc2c(O)c3ccc(NS(=O)(=O)CCc4ccccc4)cc3oc2=O)c1", 5.12],
  ["O=C(Nc1c(O)c2ccc(O)cc2oc1=O)c1cccc(SCC2CC2)c1", 4.89],
  ["COc1ccc(C(=O)Nc2c(O)c3ccc(O)cc3oc2=O)cc1CCC(C)C", 4.88],
  ["CCn1nccc1-c1ccc2c(O)c(NC(=O)c3cccc(CCC(C)C)c3)c(=O)oc2c1", 4.41],
  ["CC(C)CCc1cccc(C(=O)Nc2c(O)c3ccc(NC(=O)CCC(=O)O)cc3oc2=O)c1", 4.35],
  ["Cc1ccc(S(=O)(=O)Nc2ccc3c(O)c(NC(=O)c4cccc(CCC(C)C)c4)c(=O)oc3c2)cc1", 4.91],
  ["Cc1c(O)ccc2c(O)c(NC(=O)c3cccc(CCC(C)C)c3)c(=O)oc12", 4.49],
  ["CC(C)Sc1cccc(C(=O)Nc2c(O)c3ccc(O)cc3oc2=O)c1", 4.33],
  ["CC(C)CCc1cccc(C(=O)Nc2c(O)c3ccc(-c4cccc5ccccc45)cc3oc2=O)c1", 5.06],
  ["CC(C)CCc1cc(C(=O)Nc2c(O)c3ccc(O)cc3oc2=O)ccc1F", 4.66],
  ["CCCCSc1cccc(C(=O)Nc2c(O)c3ccc(O)cc3oc2=O)c1", 4.74],
  ["CCCCS(=O)(=O)Nc1cccc(C(=O)Nc2c(O)c3ccc(O)cc3oc2=O)c1", 4.59],
  ["O=C(Nc1c(O)c2ccc(O)cc2oc1=O)c1cccc(Oc2ccccc2)c1", 4.36],
  ["CC(C)Cc1cccc(C(=O)Nc2c(O)c3ccc(O)cc3oc2=O)c1", 4.70],
  ["CC(C)CCc1cccc(C(=O)Nc2c(O)c3ccc(NS(=O)(=O)c4ccccc4)cc3oc2=O)c1", 4.75],
  ["CC(C)CCc1cccc(C(=O)Nc2c(O)c3ccc(-c4ccnn4C)cc3oc2=O)c1", 4.35]
]}

###

- target-of-assay: Microtubule-associated protein 1 light chain 3 alpha (Homo sapiens, UniProt Q9H492)
- assay-method-text: Displacement of sGFP-p62-LIR peptide from human N-terminal SNAP-fused LC3A by time-resolved FRET assay
- assay-setup: read-out: Ki
pKi: −log10 of the molar value.
Quick reference: pKi of the listed items.

{"columns": ["molecule", "target-of-assay", "pKi"],
 "data": [
  ["Cc1ccccc1S(=O)(=O)Nc1ccc2c(O)c(NC(=O)c3cccc(CCC(C)C)c3)c(=O)oc2c1", "Microtubule-associated protein 1 light chain 3 alpha (Homo sapiens, UniProt Q9H492)", 4.81],
  ["CC(C)CS(=O)(=O)Nc1cccc(C(=O)Nc2c(O)c3ccc(O)cc3oc2=O)c1", "Microtubule-associated protein 1 light chain 3 alpha (Homo sapiens, UniProt Q9H492)", 4.28],
  ["CCCc1cccc(C(=O)Nc2c(O)c3ccc(O)cc3oc2=O)c1", "Microtubule-associated protein 1 light chain 3 alpha (Homo sapiens, UniProt Q9H492)", 4.70],
  ["O=C(Nc1c(O)c2ccc(O)cc2oc1=O)c1cccc(OCc2ccccc2)c1", "Microtubule-associated protein 1 light chain 3 alpha (Homo sapiens, UniProt Q9H492)", 4.36],
  ["CC(C)CCc1cccc(C(=O)Nc2c(O)c3ccc(-c4cccc(C(=O)O)c4)cc3oc2=O)c1", "Microtubule-associated protein 1 light chain 3 alpha (Homo sapiens, UniProt Q9H492)", 5.14],
  ["CCCSc1cccc(C(=O)Nc2c(O)c3ccc(O)cc3oc2=O)c1", "Microtubule-associated protein 1 light chain 3 alpha (Homo sapiens, UniProt Q9H492)", 4.49],
  ["CC(C)Oc1cccc(C(=O)Nc2c(O)c3ccc(O)cc3oc2=O)c1", "Microtubule-associated protein 1 light chain 3 alpha (Homo sapiens, UniProt Q9H492)", 3.99],
  ["CC(C)CCc1cccc(C(=O)Nc2c(O)c3ccc(NS(=O)(=O)c4cccc5ccccc45)cc3oc2=O)c1", "Microtubule-associated protein 1 light chain 3 alpha (Homo sapiens, UniProt Q9H492)", 5.19],
  ["Cc1c(O)ccc2c(O)c(NC(=O)c3ccc(O)c(CCC(C)C)c3)c(=O)oc12", "Microtubule-associated protein 1 light chain 3 alpha (Homo sapiens, UniProt Q9H492)", 4.61],
  ["CCCCCc1cccc(C(=O)Nc2c(O)c3ccc(O)cc3oc2=O)c1", "Microtubule-associated protein 1 light chain 3 alpha (Homo sapiens, UniProt Q9H492)", 4.92],
  ["CC(C)CCc1cccc(C(=O)Nc2c(O)c3ccc(NS(=O)(=O)CC(C)C)cc3oc2=O)c1", "Microtubule-associated protein 1 light chain 3 alpha (Homo sapiens, UniProt Q9H492)", 4.65],
  ["O=C(Nc1c(O)c2ccc(O)cc2oc1=O)c1cccc(CCC2CC2)c1", "Microtubule-associated protein 1 light chain 3 alpha (Homo sapiens, UniProt Q9H492)", 4.89],
  ["C=CCOc1cccc(C(=O)Nc2c(O)c3ccc(O)cc3oc2=O)c1", "Microtubule-associated protein 1 light chain 3 alpha (Homo sapiens, UniProt Q9H492)", 4.70],
  ["CCCOc1cccc(C(=O)Nc2c(O)c3ccc(O)cc3oc2=O)c1", "Microtubule-associated protein 1 light chain 3 alpha (Homo sapiens, UniProt Q9H492)", 3.84],
  ["CCSc1cccc(C(=O)Nc2c(O)c3ccc(O)cc3oc2=O)c1", "Microtubule-associated protein 1 light chain 3 alpha (Homo sapiens, UniProt Q9H492)", 4.38],
  ["CC(C)CCc1cccc(C(=O)Nc2c(O)c3ccc(-c4ccnn4Cc4ccccc4)cc3oc2=O)c1", "Microtubule-associated protein 1 light chain 3 alpha (Homo sapiens, UniProt Q9H492)", 3.78],
  ["CCCC[C@H](NC(=O)OC(C)(C)C)C(=O)Nc1c(O)c2ccc(O)cc2oc1=O", "Microtubule-associated protein 1 light chain 3 alpha (Homo sapiens, UniProt Q9H492)", 3.86]
]}
